Could you please report measured TGI for the items listed next?
System: MDA-MB-435
Test: NCI tumour cell line growth inhibition, 48 h

Please indicate TGI recorded for COc1cc(S(=O)(=O)Nc2nc(-c3ccc(N)cc3)cs2)ccc1Cl > 100 µM

Please indicate TGI recorded for Fc1ccc(-c2nnc3sc(COc4ccccc4Cl)nn23)cc1Cl > 100 µM

Please indicate TGI recorded for Cc1ccsc1C(=O)C(CC(=O)c1cccs1)c1ccsc1 (stereo unspecified) > 100 µM

Please indicate TGI recorded for Cc1cc(C)n(-c2nc3ccccc3c(=O)n2-c2ccccc2)n1 > 100 µM

Please indicate TGI recorded for C/C=C/C(C#N)(Cc1ccccc1)OP1(=O)OC(c2ccccc2)C(C)N1C (stereo unspecified) > 100 µM

Please indicate TGI recorded for CC[C@H](C)C1=C(O)[N@+]2([O-])Oc3ccc(-c4c(O)c(O)c(-c5ccc(OC(C)=O)cc5)c(OC(C)=O)c4OC(C)=O)cc3O[C@]2([C@@H](C)CC)C(=O)N1O > 50 µM

Please indicate TGI recorded for Cc1nc(-c2cc3c(ccc4ccccc43)oc2=O)cc2c1c(=O)oc1ccc3ccccc3c12 > 100 µM

Please indicate TGI recorded for COc1cccc(-n2ncc3c(N/N=C/c4ccc(S(C)(=O)=O)cc4)ncnc32)c1 > 25 µM

Please indicate TGI recorded for O=C(O)c1nc2ccccc2nc1Nc1ccc(F)cc1 > 100 µM

Please indicate TGI recorded for CN(C)/C=C(\C(=O)c1ccccc1)n1nc(-c2ccccc2)cc1-c1ccccc1 > 10 µM

Please indicate TGI recorded for NC(CSc1nc2ccccn2c1[N+](=O)[O-])C(=O)O (stereo unspecified) > 100 µM

* * *

System: OVCAR-8 ovarian
Assay: NCI tumour cell line growth inhibition, 48 h
RECORDED ENDPOINT: TGI

Give the observed TGI of COc1cc(C)c2c(=O)c3c(oc2c1)C(=O)c1c(O)c(OC)cc(O)c1C3=O for OVCAR-8 ovarian. 0.551 µM

Give the observed TGI of COc1ccc(OC)c(C#Cc2ccc(OC)c(C(=O)NCCc3ccc(F)cc3)c2)c1 for OVCAR-8 ovarian. > 100 µM

Give the observed TGI of O=C(O)C1=NNC(C(=O)O)=NN1 for OVCAR-8 ovarian. > 100 µM

Give the observed TGI of Nc1c(C(=O)c2cccc(CCC3(O)CCCC3)c2)cnn1-c1ccc(F)cc1 for OVCAR-8 ovarian. > 25 µM

Give the observed TGI of Cc1ccsc1C(=O)C(CC(=O)c1cccs1)c1ccsc1 (stereo not given) for OVCAR-8 ovarian. > 100 µM

Give the observed TGI of Cc1ccc(C(CC(=O)C(C)(C)CN2CCCCC2)SCCS(=O)(=O)O)cc1 (stereo not given) for OVCAR-8 ovarian. 65.4 µM

Give the observed TGI of COc1cc2c(cc1OC)C1CCc3ccccc3CN1CC2 (stereo not given) for OVCAR-8 ovarian. > 100 µM

Give the observed TGI of CN(C)c1nc(=NCc2cccs2)ss1 for OVCAR-8 ovarian. > 10 µM

Give the observed TGI of COCOCC1CCCN1CN1CCC[C@H]1COCOC (stereo not given in full) for OVCAR-8 ovarian. > 100 µM

Give the observed TGI of Nc1ccc2c(c1)CC1c3ccccc3C(C2)c2ccccc21 for OVCAR-8 ovarian. > 100 µM

Give the observed TGI of CC1(Br)C(=O)NC(=O)N(C2CC(N=[N+]=[N-])C(CO)O2)C1N=[N+]=[N-] (stereo not given) for OVCAR-8 ovarian. > 100 µM

Give the observed TGI of ClC1=NC(Cl)C(Cl)=N/C1=N\c1ncn[nH]1 (stereo not given) for OVCAR-8 ovarian. 6.05 µM

Give the observed TGI of CC(=O)Nc1ccccc1-c1cnc2ccccc2n1 for OVCAR-8 ovarian. > 100 µM

Give the observed TGI of O=C1c2cc3c(cc2[C@@H]2[C@H]1c1ccc([N+](=O)[O-])cc1C(=O)N2CCCCl)OCO3 for OVCAR-8 ovarian. > 100 µM

Give the observed TGI of CC(=O)OCC1OC(n2c(=O)n(-c3ccccc3)c(=O)c3cc(Br)cc(Br)c32)C(OC(C)=O)C(OC(C)=O)C1OC(C)=O (stereo not given) for OVCAR-8 ovarian. > 100 µM

Give the observed TGI of CN(C)CC/C(=N\Nc1ccc(Cl)c(Cl)c1)c1ccccc1 for OVCAR-8 ovarian. 3.96 µM

Give the observed TGI of N#Cc1cccc(/C=C(/C(=O)c2ccccc2)c2ccccc2)c1 for OVCAR-8 ovarian. 25.5 µM

Give the observed TGI of Nc1ccc(Nc2c3ccccc3nc3ccccc23)cc1 for OVCAR-8 ovarian. > 10 µM

Give the observed TGI of COc1ccc2nc(NC(=O)C(=O)C(C(=O)c3ccccc3-c3ccccc3)C3OC(=O)c4ccccc43)sc2c1 (stereo not given) for OVCAR-8 ovarian. 59.3 µM

Give the observed TGI of O=C(NCCNCCNCCNC(=O)c1cc(-c2ccccc2)nc2ccccc12)c1cc(-c2ccccc2)nc2ccccc12 for OVCAR-8 ovarian. 3.85 µM

* * *

Could you please report measured TGI for the items listed next?
Tested on: KM12 colon
Assay: NCI tumour cell line growth inhibition, 48 h

Please indicate TGI recorded for Nc1c(C(=O)c2cccc(C#CCN3CCOCC3)c2)cnn1-c1ccc(F)cc1 > 25 µM

Please indicate TGI recorded for N#Cc1c(N)c2c(c(-c3ccccc3)c1-c1ccccc1)C(=O)N(NC(=O)c1ccccc1)C2=O > 100 µM

Please indicate TGI recorded for COc1ccc(OC)c(-c2nc3ccccc3c(=O)[nH]2)c1 > 100 µM

Please indicate TGI recorded for CCOC(=O)N1N=NC2C3OC(C[C@@]3(C#N)OC(C)=O)[C@H]21 (stereo partly specified) > 100 µM

Please indicate TGI recorded for CCOC(=O)C(Cc1ccccc1)NC(=O)OC(C)(C)C (stereo unspecified) > 100 µM

Please indicate TGI recorded for CC[C@H](C)[C@H](NC(=O)Nc1ccccc1)C(=O)N(C)[C@H](C[C@@H](OC(C)=O)c1nc(C(=O)N[C@@H](Cc2ccccc2)C[C@H](C)C(=O)OC)cs1)C(C)C > 100 µM

* * *

System: UO-31 renal
Assay: NCI tumour cell line growth inhibition, 48 h
RECORDED ENDPOINT: GI50

Please indicate GI50 recorded for O=C(O)c1cc(-c2ccc(-c3ccc(-c4cc(C(=O)O)c5cc(Cl)ccc5n4)cc3)cc2)nc2ccc(Cl)cc12 32500 nM

Please indicate GI50 recorded for Cc1ncc(C(=O)Nc2ccc(CN3CCN(C)CC3)c(C(F)(F)F)c2)cc1C#Cc1cnc(N)c2ncccc12 59.6 nM

Please indicate GI50 recorded for CN(C)C(=O)c1cc2cnc(Nc3ccc(-c4csc5c(=O)cc(N6CCNCC6)oc45)cc3)nc2n1C1CCCC1 1640 nM

* * *

Test system: HT29 colon
Experiment: NCI tumour cell line growth inhibition, 48 h
Could you please report measured TGI for the items listed next?

Please indicate TGI recorded for COc1ccc(C2CC(=O)CC(c3ccc(OC)cc3)C23C(=O)NC(=S)NC3=O)cc1 (stereo not drawn) > 100 µM

Please indicate TGI recorded for Cc1ccccc1NC(=O)C1C(=O)N(c2ccccc2C)C(=O)/C1=N\N (stereo not drawn) > 100 µM

Please indicate TGI recorded for O=C(CC(=O)Nc1ccccc1O)Nc1ccccc1O > 100 µM
